system: HCT-116; test: Cytotoxicity assay (SRB), HCT-116; assay type: cell-based; settings: Homo sapiens, HCT-116, 72 h, HCT116 cells, 3 days, SRB; read-out: In Vitro Cellular Activity IC50 HCT116
reported-metric: IC50
Write the numeric value and append its unit.

compound	measured-on	IC50
CN(CCN1CCOCC1)c1ccc(NC=C2C(=O)NC(=O)c3ccc(Br)cc32)cc1 (stereo in doubt) [Example 871]	HCT-116	13.9 µM
O=C1NC(=O)c2ccc(C=CC3CCCCC3)cc2C1=CNCc1ccc(O)c(O)c1 [Example 664]	HCT-116	6.7 µM
O=C1NC(=O)c2ccc(C3CCCC3)cc2/C1=C/NCc1ccc(-c2ccoc2)c(O)c1 [Example 536]	HCT-116	1.1 µM

In the following, a different compound is considered.
Note to self: IC50 of CN(CCN1CCCCC1)c1ccc(N/C=C2\C(=O)NC(=O)c3ccc(Br)cc32)cc1 [Example 865] with HCT-116 was 3.1 µM

* * *

biological target: cyclin D1/cdk 4 enzyme (Homo sapiens, UniProt P11802); construct: made in house; host or cells: Sf9 insect cells, recombinant baculovirus; experiment: CDK4 ELISA kinase assay (phospho-Rb ser 795 detection); type: biochemical; settings: In Vitro Enzyme Assays, 200 μM ATP, read-out: CDK4 IC50
Sequence (P11802 whole entry, species assumed): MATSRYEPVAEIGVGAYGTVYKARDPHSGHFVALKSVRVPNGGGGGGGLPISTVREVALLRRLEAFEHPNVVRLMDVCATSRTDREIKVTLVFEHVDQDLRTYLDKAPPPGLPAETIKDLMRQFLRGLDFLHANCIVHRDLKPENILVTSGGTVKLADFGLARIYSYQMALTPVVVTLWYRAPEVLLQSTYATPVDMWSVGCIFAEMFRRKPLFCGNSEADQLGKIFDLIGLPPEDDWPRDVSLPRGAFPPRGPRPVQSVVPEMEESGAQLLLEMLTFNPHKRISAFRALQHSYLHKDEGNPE
Sequence (P24385 whole entry partner, species assumed): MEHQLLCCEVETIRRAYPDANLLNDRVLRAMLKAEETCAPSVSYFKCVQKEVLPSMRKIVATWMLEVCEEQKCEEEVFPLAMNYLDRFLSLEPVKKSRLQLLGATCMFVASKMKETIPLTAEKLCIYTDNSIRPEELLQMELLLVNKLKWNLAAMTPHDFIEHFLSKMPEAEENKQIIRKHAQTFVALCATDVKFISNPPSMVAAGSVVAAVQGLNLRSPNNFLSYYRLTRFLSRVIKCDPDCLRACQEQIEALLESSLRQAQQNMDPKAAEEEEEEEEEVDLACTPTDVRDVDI
List of IC50 values.
Note: unit nM is implicit; provide only the numeric part.

compound	unit-of-measure	IC50
CC(CO)N1CCN(c2ccc(N/C=C3\C(=O)NC(=O)c4ccc(I)cc43)cc2)CC1 (stereo not shown) [Example 398]	nM	180

# next compound below
Looking up O=C1NC(=O)c2ccc(-c3ccsc3)cc2/C1=C/Nc1ccc(C2CC=CCN2)cc1 (stereo not shown) [Example 404] , I see its IC50 listed as 100

* * *

target: cyclin B/CDK1 enzyme (Homo sapiens); construct: purchased New England BioLabs; host or cells: Sf9 insect cells, recombinant baculovirus; test: CDK1 ELISA kinase assay (phospho-Rb ser 795 detection); format: biochemical; details: In Vitro Enzyme Assay, cyclin B/CDK1, read-out: CDK1 IC50
Sequence (P06493 whole entry): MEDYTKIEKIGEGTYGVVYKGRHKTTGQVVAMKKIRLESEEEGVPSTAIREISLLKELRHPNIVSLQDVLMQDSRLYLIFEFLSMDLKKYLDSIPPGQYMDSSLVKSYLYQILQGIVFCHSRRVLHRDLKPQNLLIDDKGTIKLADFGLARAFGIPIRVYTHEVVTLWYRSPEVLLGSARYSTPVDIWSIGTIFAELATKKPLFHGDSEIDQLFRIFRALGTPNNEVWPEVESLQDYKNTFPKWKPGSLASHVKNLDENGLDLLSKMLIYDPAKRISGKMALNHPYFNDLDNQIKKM
Sequence (P14635 whole entry partner): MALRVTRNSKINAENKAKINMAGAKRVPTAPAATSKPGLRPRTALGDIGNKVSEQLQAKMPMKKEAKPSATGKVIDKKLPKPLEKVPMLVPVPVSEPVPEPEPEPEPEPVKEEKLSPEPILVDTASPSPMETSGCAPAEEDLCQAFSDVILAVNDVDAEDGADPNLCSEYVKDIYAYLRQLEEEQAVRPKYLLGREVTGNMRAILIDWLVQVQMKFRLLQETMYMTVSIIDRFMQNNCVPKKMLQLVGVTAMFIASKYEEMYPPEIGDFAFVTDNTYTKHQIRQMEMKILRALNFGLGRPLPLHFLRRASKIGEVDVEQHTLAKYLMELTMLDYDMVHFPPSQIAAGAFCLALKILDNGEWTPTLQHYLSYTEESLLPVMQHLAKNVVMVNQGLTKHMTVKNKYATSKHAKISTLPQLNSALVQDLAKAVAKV
pIC50: −log10 of the molar value.
We begin with a simple list: items and their reported pIC50.

molecule	experimental-value
CN1CCN(c2ccc(NC=C3C(=O)NC(=O)c4ccc(-c5ccc(CO)cc5)cc43)cc2)CC1	< 4.30
O=C1NC(=O)c2ccc(I)cc2/C1=C/Nc1ccc(C2CCCN2CCO)cc1 (centres unmarked)	< 4.30
N#Cc1ccc(-c2ccc3c(c2)C(=CNCc2ccc(S(N)(=O)=O)cc2)C(=O)NC3=O)cc1	4.91
COc1ccc(CNC=C2C(=O)NC(=O)c3ccc(C=CCc4cccc(OC)c4O)cc32)cc1O	< 4.30
O=C1NC(=O)c2ccc(I)cc2/C1=C/Nc1ccc(C2CCCN2)cc1 (centres unmarked)	< 4.30

# pIC50 of O=C(O)C=Cc1ccc(-c2ccc3c(c2)C(=CNCc2ccc(O)c(O)c2)C(=O)NC3=O)cc1 = 4.75

CC1CCCN1Cc1ccc(NC=C2C(=O)NC(=O)c3ccccc32)cc1 (centres unmarked) yielded pIC50 of < 4.30

Record NS(=O)(=O)c1ccc(CNC=C2C(=O)NC(=O)c3ccc(C=Cn4ccnc4)cc32)cc1 . Reported pIC50: < 4.30

* * *

tested on: BT474; assay: Cytotoxicity assay (SRB), BT474; format: cell-based; settings: Homo sapiens, BT-474, 144 h, BT474 cells, 6 days, SRB; read-out: In Vitro Cellular Activity IC50 BT474
reported-metric: IC50 (µM)
Expressed in µM, but write only the number.

Examples with their reported IC50 follow.
record-smiles	experimental-value
CON(C)C(=O)C1CCN(c2ccc(N/C=C3\C(=O)NC(=O)c4ccc(I)cc43)cc2)CC1	9.3
CN1CCN(c2ccc(NC=C3C(=O)NC(=O)c4ccc(C=Cc5ccccn5)cc43)cc2)CC1	7.7

Reported IC50 of CN1CCN(c2ccc(NC=C3C(=O)NC(=O)c4ccc(-c5ccc(CO)cc5)cc43)cc2)CC1 : 8

* * *

test system: MCF-7; experiment: Cytotoxicity assay (SRB), MCF-7; assay type: cell-based; conditions: Homo sapiens, MCF7, 72 h, MCF-7 cells, 3 days, SRB; read-out: In Vitro Cellular Activity IC50 MCF-7
reported-metric: pIC50
// field semantics: pIC50 = negative decimal log of concentration (mol/L)

Consider the following illustrative entries.
compound	pIC50
CN1CCCC1c1ccc(N/C=C2\C(=O)NC(=O)c3ccc(I)cc32)nc1 (stereo not drawn) [Example 460]	4.99
O=C1NC(=O)c2ccc(-c3cccc(C(F)(F)F)c3)cc2C1=CNCc1ccc(O)c(O)c1 [Example 773]	4.90

// O=C1NC(=O)c2ccc(-c3csc4ccccc34)cc2C1=CNCc1ccc(O)c(O)c1 [Example 645] : pIC50 value = 5.06

* * *

Below, each entry is listed with its recorded pIC50.
target: cyclin B/CDK1 enzyme (Homo sapiens); construct: purchased New England BioLabs; host or cells: Sf9 insect cells, recombinant baculovirus; experiment: CDK1 ELISA kinase assay (phospho-Rb ser 795 detection); assay type: biochemical; details: In Vitro Enzyme Assays, read-out: CDK1 IC50
pIC50: −log10 of the molar value.

record-smiles	experimental-value
O=C1NC(=O)c2ccc(Br)cc2/C1=C/NCc1ccc(O)cc1	< 4.30
CN(CCO)c1ccc(N/C=C2\C(=O)NC(=O)c3ccc(Br)cc32)cc1	< 4.30

Let's switch to this compound now.
Please fill in: pIC50 reported for CCCOc1ccc(CN/C=C2\C(=O)NC(=O)c3ccc(-c4ccc(F)cc4)cc32)cc1O = < 4.30

* * *

Quick reference for IC50 among some molecules
system: MCF-7; assay: Cytotoxicity assay (SRB), MCF-7; assay type: cell-based; settings: Homo sapiens, MCF7, 72 h, MCF-7 cells, SRB, three days; read-out: In Vitro Cellular Activity IC50 MCF-7

record-smiles	IC50
CN(C)CCN1CCN(/C=C2\C(=O)NC(=O)c3ccc(Br)cc32)CC1	> 50 µM

get_value(item= COc1ccc(C#Cc2ccc3c(c2)/C(=C/Nc2ccc(N4CCN(C)CC4)cc2)C(=O)NC3=O)cc1 , readout=IC50) returns > 50 µM

Documented IC50 of COc1cc(CN/C=C2\C(=O)NC(=O)c3ccc(Br)cc32)ccc1O : > 50 µM

* * *

molecular target: cyclin D1/cdk 4 enzyme (Homo sapiens, UniProt P11802); construct: made in house; host or cells: Sf9 insect cells, recombinant baculovirus; experiment: CDK4 ELISA kinase assay (phospho-Rb ser 795 detection); assay type: biochemical; conditions: In Vitro Enzyme Assay, cyclin D1/cdk 4, read-out: CDK4 IC50
reported-metric: IC50 (µM)
Please state the figure in µM; there is no need to write the unit.

record-smiles	experimental-value
COc1ccc(NC=C2C(=O)NC(=O)c3ccccc32)cc1O	45.2
O=C1NC(=O)c2ccc(-c3ccco3)cc2C1=CNCc1ccc(O)c(O)c1	0.01
CC(C)c1cccc(-c2ccc3c(c2)C(=CNCc2ccc(S(N)(=O)=O)cc2)C(=O)NC3=O)c1	33.6
O=C1NC(=O)c2ccccc2C1=CNc1ccc(N2CCN(CCN3CCCC3)CC2)cc1	37

Now let's try a different one.
Value of measured IC50 for the entry N#CCc1ccc(NC=C2C(=O)NC(=O)c3ccc(-c4csc5ccccc45)cc32)cc1 : 33.6

* * *

target: cyclin D1/cdk 4 enzyme (Homo sapiens, UniProt P11802); construct: made in house; host or cells: Sf9 insect cells, recombinant baculovirus; assay: CDK4 ELISA kinase assay (phospho-Rb ser 795 detection); type: biochemical; conditions: In Vitro Enzyme Assays, 200 μM ATP, read-out: CDK4 IC50
reported-metric: IC50 (nM)
The figure you give is taken to be in nM; do not add the unit.

Example compounds with recorded IC50:
compound	experimental-value
COc1ccc(CN/C=C2\C(=O)NC(=O)c3ccc(NS(=O)(=O)c4ccccc4)cc32)cc1O [Example 196]	1100
CC1CCCN1Cc1ccc(N/C=C2\C(=O)NC(=O)c3ccc(I)cc32)cc1 (centres unmarked) [Example 138]	140
O=C1NC(=O)c2ccc(Br)cc2/C1=C/Nc1ccc(N2CCC(N3CCCC3)CC2)c(F)c1 [Example 405]	1800

Consider the additional compound presented here.
The compound CN1CCN(c2ccc(N/C=C3\C(=O)NC(=O)c4ccc(-n5cccc5)cc43)cc2F)CC1 [Example 328] , when measured on cyclin D1/cdk 4 enzyme (Homo sapiens, UniProt P11802), yielded IC50 of 770

* * *

molecular target: cyclin D1/cdk 4 enzyme (Homo sapiens, UniProt P11802); construct: made in house; host or cells: Sf9 insect cells, recombinant baculovirus; test: CDK4 ELISA kinase assay (phospho-Rb ser 795 detection); type: biochemical; conditions: In Vitro Enzyme Assay, cyclin D1/cdk 4, read-out: CDK4 IC50
Measured IC50 accompanies every entry in the list below.
The figure you give is taken to be in µM; do not add the unit.

Some solved entries appear below for comparison.
record-smiles	IC50, µM
COc1ccc(-c2ccc3c(c2)C(=CNCc2ccc(O)c(O)c2)C(=O)NC3=O)c(OC)c1	2.75
CNc1ccc(CN/C=C2\C(=O)NC(=O)c3ccccc32)cc1	23.5
CCCS(=O)(=O)Nc1ccc(CNC=C2C(=O)NC(=O)c3ccccc32)cc1	29.9
N#CCc1ccc(NC=C2C(=O)NC(=O)c3ccc(C=Cc4ccccn4)cc32)cc1	18.6

Here is another compound to look at.
Kindly note: cyclin D1/cdk 4 enzyme (Homo sapiens, UniProt P11802), O=C1NC(=O)c2ccccc2C1=CNCc1cccc(NS(=O)(=O)c2cccs2)c1 , IC50 value reported: 20.4
